Reference source: PubChem BioAssay

assay-notes: inhibition of endothelial tube formation, primary screen, imaging, VEGF stimulated, CD31 staining, tube area, NPC library (AID 1117340)
condition-description: VEGF-stimulated ADSC/ECFC co-culture, at 10 µM, stronger effect = higher value
Active and inactive are the calls of the source.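 How the source made its calls: active means compound that reduces growth-factor-driven endothelial tube area in a mixed cell culture, no cutoff stated; inactive means the rest.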
property: tube area decrease

tube area decrease reading for COc1ccc(C(=O)NCc2ccc(OCCN(C)C)cc2)cc1OC : 4.2% (inactive)

tube area decrease reading for OCC(O)CN1CCN(c2ccccc2)CC1 (configuration not stated) : -0.2% (inactive)

tube area decrease reading for Cc1cc(C)nc(NS(=O)(=O)c2ccc(N)cc2)n1 : -24.8% (inactive)

tube area decrease reading for NCCS(=O)(=O)O : -12% (inactive)

tube area decrease reading for Cn1c(=O)c2c(ncn2C)n(C)c1=O : 16.4% (inactive)

tube area decrease reading for Clc1ccc2nsnc2c1NC1=NCCN1 : -9.7% (inactive)

tube area decrease reading for CN(CCCN1c2ccccc2CCc2ccccc21)CC(=O)c1ccc(Cl)cc1 : 29.2% (inactive)

====

assay-notes: polyglutamine aggregate formation blockers (AID 1604)
condition-description: polyglutamine-induced protein aggregation inhibition assay; stronger effect = higher value; concentration not given here
property: inhibition of aggregation (%)
Give a bare numeral; the unit % is implied.

inhibition of aggregation reading for CC1(C)S[C@@H]2[C@H](NC(=O)[C@H](N)c3ccccc3)C(=O)N2[C@H]1C(=O)O : 80.3

inhibition of aggregation reading for CC(=O)Oc1ccc(C(c2ccc(OC(C)=O)cc2)c2ccccn2)cc1 : 74.4

inhibition of aggregation reading for Cc1c(NC(C)C)c(=O)n(-c2ccccc2)n1C : 13.7

inhibition of aggregation reading for C=C1c2cccc(O)c2C(O)=C2C(=O)[C@]3(O)C(O)=C(C(N)=O)C(=O)[C@@H](N(C)C)[C@@H]3[C@@H](O)[C@H]12 : 29.5

inhibition of aggregation reading for O=C(O)c1cccnc1Nc1cccc(C(F)(F)F)c1 : -18.2

inhibition of aggregation reading for NC(=O)c1ccccc1O : 78.1

====

assay-notes: stimulators of insulin release from INS-1E, primary screen, cell-based, 5 mM glucose, NPC library (AID 1117329); further: reference of the scale not given here
condition-description: rat INS-1E insulin secretion, at 10 µM
Active and inactive are the calls of the source.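 The calls were made as follows: active = compound raises insulin release from rat beta cells at 5 mM glucose, no numeric limit stated; inactive = the rest.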
Answer with one of the outcomes given here: True for active, False for inactive

q: Lab log entry: Cc1ccc(C(C)C)cc2c(C)ccc1-2 — outcome as called in the assay?
a: False

q: Lab log entry: NC(=NCCCCCCN=C(N)/N=C(\N)Nc1ccc(Cl)cc1)/N=C(\N)Nc1ccc(Cl)cc1 — outcome as called in the assay?
a: True

q: Lab log entry: CC(=O)Nc1c(I)cc(I)c(C(=O)O)c1I — outcome as called in the assay?
a: False

q: Lab log entry: CCOC(=O)O[C@]1(C(=O)OCCl)CC[C@H]2[C@@H]3CCC4=CC(=O)C=C[C@]4(C)[C@H]3[C@@H](O)C[C@@]21C — outcome as called in the assay?
a: False

q: Lab log entry: CC(Cc1cccc(C(F)(F)F)c1)NCCOC(=O)c1ccccc1 (stereo not given) — outcome as called in the assay?
a: False

====

Give insulin secretion stimulation for every item shown.
assay-notes: stimulators of insulin release from INS-1E, primary screen, cell-based, 5 mM glucose, NPC library (AID 1117329); further: reference of the scale not given here
condition-description: rat INS-1E insulin secretion, at 10 µM, stronger effect = higher value
Give a bare numeral; the unit % is implied.

insulin secretion stimulation reading for COc1cc(-c2ccc(=O)[nH]n2)ccc1OC(F)F : 0.6

insulin secretion stimulation reading for CN1CCN(c2cc3c(cc2F)c(=O)c(C(=O)O)cn3-c2ccc(F)cc2)CC1 : -1.1

insulin secretion stimulation reading for O=C(O)CCNC(=O)c1ccccc1 : -1

insulin secretion stimulation reading for Nc1nc(=S)c2[nH]cnc2[nH]1 : -2

insulin secretion stimulation reading for CC(C)[C@H](N)C(=O)OCCOCn1cnc2c(=O)[nH]c(N)nc21 : 4.1

insulin secretion stimulation reading for O=c1[nH]c(=O)n([C@H]2C[C@H](O)[C@@H](CO)O2)cc1F : -1.2
